- target or system: T1, mTfR-1 L383A on Expi293 cells (mouse, UniProt Q62351 1-763)
- T1 construct: whole, on cells
- T1 sequence (Q62351 whole entry L383A): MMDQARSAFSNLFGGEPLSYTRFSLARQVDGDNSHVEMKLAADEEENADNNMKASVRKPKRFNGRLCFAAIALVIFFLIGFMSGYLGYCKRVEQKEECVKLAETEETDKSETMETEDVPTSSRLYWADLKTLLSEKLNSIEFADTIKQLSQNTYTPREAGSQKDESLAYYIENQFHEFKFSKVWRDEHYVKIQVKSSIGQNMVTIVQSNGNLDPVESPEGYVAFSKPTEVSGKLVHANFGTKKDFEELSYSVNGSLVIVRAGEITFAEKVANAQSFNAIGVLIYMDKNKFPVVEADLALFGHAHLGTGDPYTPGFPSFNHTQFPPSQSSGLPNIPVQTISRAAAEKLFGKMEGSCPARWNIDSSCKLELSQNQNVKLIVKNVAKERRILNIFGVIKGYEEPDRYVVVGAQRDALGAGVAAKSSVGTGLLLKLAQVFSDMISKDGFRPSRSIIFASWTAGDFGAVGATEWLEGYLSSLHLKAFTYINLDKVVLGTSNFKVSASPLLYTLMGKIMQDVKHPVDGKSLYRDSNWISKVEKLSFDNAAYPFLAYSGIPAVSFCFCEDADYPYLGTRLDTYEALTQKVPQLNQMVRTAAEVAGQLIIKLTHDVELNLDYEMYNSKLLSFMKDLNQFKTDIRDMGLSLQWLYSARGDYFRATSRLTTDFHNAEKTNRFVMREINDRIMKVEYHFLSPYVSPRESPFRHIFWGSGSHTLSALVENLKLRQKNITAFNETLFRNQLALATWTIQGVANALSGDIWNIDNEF
- protocol notes: FACS, transfected Expi293 cells
Entries and their % double-positive cells vs WT values follow.

Illustrative cases are given below, each with its answer.
{"binder": "Clone C variant 13 VNAR-hFc (Fc fusion, not shown: a dimerising Fc or GST, also called Clone C v13; Clone C var; 13) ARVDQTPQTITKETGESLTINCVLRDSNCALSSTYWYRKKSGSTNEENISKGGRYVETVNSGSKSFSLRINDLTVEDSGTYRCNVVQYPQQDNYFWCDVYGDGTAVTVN", "% double-positive cells vs WT": "121%"}
{"binder": "Clone C VNAR-hFc fusion (Fc fusion, not shown: a dimerising Fc or GST, bivalent VNAR-Fc; also called Clone C-hFc) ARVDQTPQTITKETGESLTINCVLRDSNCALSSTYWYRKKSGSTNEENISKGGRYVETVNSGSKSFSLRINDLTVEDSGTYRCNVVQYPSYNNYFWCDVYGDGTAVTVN", "% double-positive cells vs WT": "328%"}
{"binder": "Clone C variant 18 VNAR-hFc (Fc fusion, not shown: a dimerising Fc or GST, also called Clone C v18; Clone C var; 18) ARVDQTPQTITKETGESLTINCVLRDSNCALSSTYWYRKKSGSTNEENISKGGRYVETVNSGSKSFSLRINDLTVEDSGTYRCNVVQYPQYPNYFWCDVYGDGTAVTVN", "% double-positive cells vs WT": "354%"}

I have this binder here, 8D3 antibody (anti-mouse TfR-1 control; 8D3-hFc formatted antibody) (antibody, V domains shown) VH: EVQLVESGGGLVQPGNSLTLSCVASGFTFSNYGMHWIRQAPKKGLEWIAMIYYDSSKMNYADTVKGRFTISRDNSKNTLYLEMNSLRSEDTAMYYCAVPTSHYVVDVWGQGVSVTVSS VL: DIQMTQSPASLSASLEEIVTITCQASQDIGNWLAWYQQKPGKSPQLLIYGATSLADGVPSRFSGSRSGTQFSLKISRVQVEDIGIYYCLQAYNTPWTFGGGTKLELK , and I need its recorded % double-positive cells vs WT.
73%
